Target: group 2: CDC14A, PTP4A1, BRCA2 and RCL1 homologous peptide/HLA-A*02:01 complexes (mixed)
Test: SPR (BIAcore T200), crude scFv captured, mixed complexes flowed over
# key: entry, value: SPR binding level
METRIC: SPR binding level (RU)

BINDER | RESULT_NUMBER
22-AS170036 VL1VH1-57H108A (scFv) scFv: QSALTQPRSVSGSPGQSVTISCAGTSSDVGSENYVSWYQQHPGKAPKLMIYQVNKRASGVPDRFSGSKSGNTASLTISGLQAEDEADYYCASYRSSDHNIVFGGGTKLTVLGGGGSGGGGSGGGGSEVQLVESGGGLVQPGGSLRLSCAASGFTFSSYAMSWVRQAPGKGLEWVSTINSGTGHPYYADSVKGRFTISRDNSKNTLYLQMNSLRAEDTAVYYCAKNFFDGSWFLAPPAMDYWGQGTLVTVSSHHHHHH | 10
67-AS170036 VL1VH1-57K98F108A (scFv) scFv: QSALTQPRSVSGSPGQSVTISCAGTSSDVGSENYVSWYQQHPGKAPKLMIYQVNKRASGVPDRFSGSKSGNTASLTISGLQAEDEADYYCASYRSSDFNIVFGGGTKLTVLGGGGSGGGGSGGGGSEVQLVESGGGLVQPGGSLRLSCAASGFTFSSYAMSWVRQAPGKGLEWVSTINSGTGKPYYADSVKGRFTISRDNSKNTLYLQMNSLRAEDTAVYYCAKNFFDGSWFLAPPAMDYWGQGTLVTVSSHHHHHH | 22.3
03-AS170036 VL1VH1-56Y98Q (scFv) scFv: QSALTQPRSVSGSPGQSVTISCAGTSSDVGSENYVSWYQQHPGKAPKLMIYQVNKRASGVPDRFSGSKSGNTASLTISGLQAEDEADYYCASYRSSDQNIVFGGGTKLTVLGGGGSGGGGSGGGGSEVQLVESGGGLVQPGGSLRLSCAASGFTFSSYAMSWVRQAPGKGLEWVSTINSGTYSPYYADSVKGRFTISRDNSKNTLYLQMNSLRAEDTAVYYCAKNFFDGSWFLGPPAMDYWGQGTLVTVSSHHHHHH | 27.2
